Data origin, for the record: patent US20260174875A1

Could you please report measured hGLP-1R Potency, no HSA, EC50 [pM] for the items listed next?
system_name: human GLP-1 receptor (human, UniProt P43220 24-463)
protocol_summary: cell-based or functional assay
Numbered stars: 1 amine (or outer) side, 2 acyl side, 3 side chain; on linkers, the order of the positions; unused ones are H or OH. Square brackets hold non-standard residues; d marks the D form. Side chains are listed from the residue outwards. * marks the point of attachment. C20 diacid = O=C(O)CCCCCCCCCCCCCCCCCCC(=O)*; γGlu = O=C(O)[C@H](CCC(=O)[*:2])N[*:1]; Chem. 27 = not defined here; AEEA = NCCOCCOCC(=O)O; Aib = CC(C)(N)C(=O)O
Report the figure in pM without appending any unit label.

In: Identify measured hGLP-1R Potency, no HSA, EC50 [pM] associated with Compound 115 (peptide) peptide: Y[Aib]EGTFTSDYSILLEEQAAREFIEWLLAGGPSSGAGQAPGQAPGASHLSTAQTQRLSAELHK([AEEA-AEEA-γGlu-C20 diacid])LATLPRTETGSGSP-NH2
Out: 19.4

In: Identify measured hGLP-1R Potency, no HSA, EC50 [pM] associated with Compound 176 (reading uncertain) peptide: Y[Aib]EGTFTSDYSILLEEIAAREFIEWLLAGGPSSGAGASELSTAQTQRLSAELHK(Chem. 27)LATLPRTETGSGSP-NH2
Out: 29.9

In: Identify measured hGLP-1R Potency, no HSA, EC50 [pM] associated with Compound 217 (also: further groups not given here) peptide: Y[Aib]EGTFTSDYSILLEEIAAREFIEWLLAGGPSSGAGQAPGEAPGASHLSTAQTQRLSAELHKLATLPRTETGSGSP-NH2
Out: 9

In: Identify measured hGLP-1R Potency, no HSA, EC50 [pM] associated with Compound 210 (also: further groups not given here) peptide: Y[Aib]EGTFTSDYSILLEEQAAREFIEWLLAGGPSSGAGQAPGQAPGASHLSTAQTQRLSAELHKLATLPRTETGSGSP-NH2
Out: 16.4

In: Identify measured hGLP-1R Potency, no HSA, EC50 [pM] associated with Compound 179 (reading uncertain) peptide: Y[Aib]EGTFTSDYSILLEEIAAREFIEWLLAGGPSSGAGASHLSTAQTQRLSAELHK(Chem. 27)LATEPRTETGSGSP-NH2
Out: 23.3
